Target: Polyunsaturated fatty acid 5-lipoxygenase (Homo sapiens)
Sequence (P09917 whole entry): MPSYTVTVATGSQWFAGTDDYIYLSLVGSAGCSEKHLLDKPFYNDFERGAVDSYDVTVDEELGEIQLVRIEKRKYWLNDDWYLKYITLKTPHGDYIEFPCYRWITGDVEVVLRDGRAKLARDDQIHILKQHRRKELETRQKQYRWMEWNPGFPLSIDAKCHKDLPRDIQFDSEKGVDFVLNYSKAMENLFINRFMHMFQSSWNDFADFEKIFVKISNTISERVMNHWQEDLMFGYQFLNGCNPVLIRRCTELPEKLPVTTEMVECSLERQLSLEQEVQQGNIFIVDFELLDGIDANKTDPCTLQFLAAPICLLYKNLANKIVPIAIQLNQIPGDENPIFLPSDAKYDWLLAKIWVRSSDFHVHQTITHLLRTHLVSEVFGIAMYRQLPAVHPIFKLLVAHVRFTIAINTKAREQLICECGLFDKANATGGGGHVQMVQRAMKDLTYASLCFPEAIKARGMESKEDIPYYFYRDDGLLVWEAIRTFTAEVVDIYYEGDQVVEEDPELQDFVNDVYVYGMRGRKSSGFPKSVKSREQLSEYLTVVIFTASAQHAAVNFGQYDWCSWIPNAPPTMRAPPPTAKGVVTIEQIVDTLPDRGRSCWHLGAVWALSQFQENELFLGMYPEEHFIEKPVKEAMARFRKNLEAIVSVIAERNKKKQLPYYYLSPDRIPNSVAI
Experiment: Inhibition of 5-LOX (unknown origin) using arachidonic acid as substrate after 5 mins by EIA
pIC50: −log10 of the molar value.
REPORTED PROPERTY: pIC50

These recorded examples may help you get a feel for the data.
{"columns": ["COMPOUND", "ASSAYED TARGET", "pIC50"],
 "data": [
  ["Cc1ccc(S(=O)(=O)n2cc(C(=O)C(=O)N[C@H](Cc3cnc[nH]3)C(=O)O)c3ccccc32)cc1", "Polyunsaturated fatty acid 5-lipoxygenase (Homo sapiens)", 5.55],
  ["COC(=O)CC[C@@H](NC(=O)C(=O)c1c[nH]c2ccccc12)C(=O)OC", "Polyunsaturated fatty acid 5-lipoxygenase (Homo sapiens)", 5.08],
  ["CC(C)(C)Sc1c(CC(C)(C)C(=O)O)n(Cc2ccc(Cl)cc2)c2ccc(OCc3ccc4ccccc4n3)cc12 [QUIFLAPON]", "Polyunsaturated fatty acid 5-lipoxygenase (Homo sapiens)", 8.80],
  ["Cc1ccc(S(=O)(=O)n2cc(C(=O)C(=O)NCC(=O)O)c3ccccc32)cc1", "Polyunsaturated fatty acid 5-lipoxygenase (Homo sapiens)", 8.07],
  ["COC(=O)[C@H]1CCCN1C(=O)C(=O)c1cn(S(=O)(=O)c2ccc(C)cc2)c2ccccc12", "Polyunsaturated fatty acid 5-lipoxygenase (Homo sapiens)", 6.48],
  ["Cc1ccc(S(=O)(=O)n2cc(C(=O)C(=O)N[C@H](Cc3c[nH]c4ccccc34)C(=O)O)c3ccccc32)cc1", "Polyunsaturated fatty acid 5-lipoxygenase (Homo sapiens)", 8.00]
]}

1: COC(=O)CC[C@@H](NC(=O)C(=O)c1cn(S(=O)(=O)c2ccc(C)cc2)c2ccccc12)C(=O)OC
2: COC(=O)CNC(=O)C(=O)c1cn(S(=O)(=O)c2ccc(C)cc2)c2ccccc12
3: Cc1ccc(S(=O)(=O)n2cc(C(=O)C(=O)N[C@H](CCC(=O)O)C(=O)O)c3ccccc32)cc1
Thanks in advance: please rank these 3 entries by pIC50, highest to lowest. Field: ranking. Enter the labels in the order requested.
2, 3, 1
(2: 8.01, 3: 7.01, 1: 6.05)

1: COC(=O)[C@@H](Cc1c[nH]c2ccccc12)NC(=O)C(=O)c1cn(S(=O)(=O)c2ccc(C)cc2)c2ccccc12
2: COC(=O)CNC(=O)C(=O)c1c[nH]c2ccccc12
Lab notebook, comparison: 1 versus 2 , higher pIC50 goes to which? Lab note: record the label of whichever item you select.
1
(1: 7.28, 2: 5.46)

1: COC(=O)[C@H]1CCCN1C(=O)C(=O)c1c[nH]c2ccccc12
2: Cc1ccc(S(=O)(=O)n2cc(C(=O)C(=O)N3CCC[C@@H]3C(=O)O)c3ccccc32)cc1
Pick one, 1 or 2 : lowest reported pIC50. In your reply, give the label of the chosen option.
1
(1: 5.26, 2: 6.22)
